Form field: pIC50 (one value per entry).
# SUBJECT_OF_TEST: ErbB2 WT (Homo sapiens (Human))
# Sequence (P04626 23-1255): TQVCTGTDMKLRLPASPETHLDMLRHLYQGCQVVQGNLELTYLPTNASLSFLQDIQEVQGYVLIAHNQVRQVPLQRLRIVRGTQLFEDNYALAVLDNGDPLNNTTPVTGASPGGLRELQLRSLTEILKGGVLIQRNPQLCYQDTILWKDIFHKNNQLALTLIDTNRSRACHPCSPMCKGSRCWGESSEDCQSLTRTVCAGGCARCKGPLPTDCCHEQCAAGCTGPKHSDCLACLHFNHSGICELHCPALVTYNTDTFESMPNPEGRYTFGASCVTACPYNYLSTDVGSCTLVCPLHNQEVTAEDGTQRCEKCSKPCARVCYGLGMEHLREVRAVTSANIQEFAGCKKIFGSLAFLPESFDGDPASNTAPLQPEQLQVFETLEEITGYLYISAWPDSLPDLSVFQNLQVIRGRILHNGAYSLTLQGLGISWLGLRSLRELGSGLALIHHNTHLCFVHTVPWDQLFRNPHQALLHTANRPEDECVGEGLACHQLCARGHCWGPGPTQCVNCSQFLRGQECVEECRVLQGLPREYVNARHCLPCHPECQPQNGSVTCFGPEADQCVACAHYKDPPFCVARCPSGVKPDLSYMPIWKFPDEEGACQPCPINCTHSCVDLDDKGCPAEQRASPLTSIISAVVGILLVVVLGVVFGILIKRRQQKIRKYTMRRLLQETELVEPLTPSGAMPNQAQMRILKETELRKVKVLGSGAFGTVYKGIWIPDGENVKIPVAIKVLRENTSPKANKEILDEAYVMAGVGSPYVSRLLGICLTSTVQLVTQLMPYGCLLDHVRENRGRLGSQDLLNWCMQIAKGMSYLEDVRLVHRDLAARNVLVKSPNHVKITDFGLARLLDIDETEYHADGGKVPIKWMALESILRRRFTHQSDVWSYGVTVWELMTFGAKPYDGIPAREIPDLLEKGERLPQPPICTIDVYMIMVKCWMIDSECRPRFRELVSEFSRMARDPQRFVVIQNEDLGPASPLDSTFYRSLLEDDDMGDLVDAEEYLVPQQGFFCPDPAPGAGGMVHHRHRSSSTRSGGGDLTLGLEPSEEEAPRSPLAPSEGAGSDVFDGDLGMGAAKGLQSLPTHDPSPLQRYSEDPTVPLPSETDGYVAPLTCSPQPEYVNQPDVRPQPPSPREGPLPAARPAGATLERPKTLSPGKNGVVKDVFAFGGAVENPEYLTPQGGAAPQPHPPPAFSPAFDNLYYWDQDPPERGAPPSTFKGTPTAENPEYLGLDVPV
# PROCEDURE_SUMMARY: ErbB Enzyme Assay (HTRF KinEASE-TK), Assay 2
# Format: biochemical
# PARTICULARS: ErbB2 WT enzyme
Reminder that pIC50 means the negative base-10 logarithm of the concentration expressed in mol/L.

COMPOUND: CC#CC(=O)N1CCC[C@@H](c2ccc3ncnc(Nc4ccc(Oc5ccn6ncnc6c5)c(C)c4F)c3n2)CC1 (single isomer, unassigned) [Example 212]
pIC50: 7.18

COMPOUND: C=CC(=O)N1C2CC1CN(c1ccc3ncnc(Nc4ccc(Oc5ccn6ncnc6c5)c(Cl)c4F)c3n1)C2 [Example 25]
pIC50: 7.30

COMPOUND: C=CC(=O)N1[C@@H]2CC[C@H]1[C@H](c1ccc3ncnc(Nc4ccc(Oc5ccn6ncnc6c5)c(C)c4)c3n1)C2 (single isomer, unassigned) [Example 233]
pIC50: 6.92

Now take the following compound into account.
Find the recorded pIC50 belonging to C=CC(=O)N1[C@@H]2CC[C@H]1[C@H](c1ccc3ncnc(Nc4ccc(Oc5ccn6ncnc6c5)c(C)c4F)c3n1)C2 (racemic) [Example 213] and report it.
8.14

###

# SUBJECT_OF_TEST: BCRP (Homo sapiens (Human))
# Sequence (Q9UNQ0 whole entry): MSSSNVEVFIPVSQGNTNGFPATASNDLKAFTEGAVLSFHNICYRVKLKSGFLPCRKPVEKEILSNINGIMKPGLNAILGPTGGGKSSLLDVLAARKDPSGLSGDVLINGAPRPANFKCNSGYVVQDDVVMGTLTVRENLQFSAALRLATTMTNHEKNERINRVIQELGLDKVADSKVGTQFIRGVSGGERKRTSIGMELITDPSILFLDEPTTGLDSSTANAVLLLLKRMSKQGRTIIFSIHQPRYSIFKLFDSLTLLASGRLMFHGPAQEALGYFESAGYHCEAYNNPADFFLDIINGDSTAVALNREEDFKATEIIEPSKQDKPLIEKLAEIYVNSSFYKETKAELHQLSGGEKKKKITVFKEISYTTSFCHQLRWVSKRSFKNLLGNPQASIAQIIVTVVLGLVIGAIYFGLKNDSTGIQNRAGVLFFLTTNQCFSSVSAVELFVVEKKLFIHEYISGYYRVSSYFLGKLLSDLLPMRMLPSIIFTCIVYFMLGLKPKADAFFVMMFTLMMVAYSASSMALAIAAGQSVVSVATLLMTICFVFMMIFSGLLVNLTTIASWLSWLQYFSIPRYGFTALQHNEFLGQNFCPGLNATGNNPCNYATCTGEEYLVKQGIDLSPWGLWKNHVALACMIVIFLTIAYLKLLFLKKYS
# PROCEDURE_SUMMARY: BCRP MDCKII efflux assay (Assay 7)
# Format: in vitro ADME
# PARTICULARS: dog; efflux ratio Papp(B-A)/Papp(A-B), BCRP MDCKII cells; read-out: Assay 7 Pe Ratio
Quick rule for you: efflux ratio at 2 h, 1 µM under 7 gets satisfied, anything else gets not satisfied.

MOLECULE: C=CC(=O)N1[C@@H]2CC[C@H]1[C@H](c1ccc3ncnc(Nc4ccc(Oc5ccc6c(c5)ncn6C)c(C)c4F)c3n1)C2 [Example 394]
SUBJECT_OF_TEST: BCRP (Homo sapiens (Human))
CLASS_LABEL: satisfied

MOLECULE: C=CC(=O)N1CC2CC(C1)N2c1ccc2ncnc(Nc3cc(C)c(Oc4ccc5c(c4)ncn5C)cc3F)c2n1 [Example 334]
SUBJECT_OF_TEST: BCRP (Homo sapiens (Human))
CLASS_LABEL: satisfied

MOLECULE: C=CC(=O)N1C2CC1CN(c1ccc3ncnc(Nc4ccc(Oc5ccc6c(c5)ncn6C)c(Cl)c4F)c3n1)C2 [Example 325]
SUBJECT_OF_TEST: BCRP (Homo sapiens (Human))
CLASS_LABEL: not satisfied

State whether 7 exceeds efflux ratio at 2 h, 1 µM recorded for C=CC(=O)N1CCC(c2ccc3ncnc(Nc4ccc(Oc5ccc6c(c5)ncn6C)c(C)c4F)c3n2)CC12CC2 (centres unmarked) [Example 128] .
satisfied

State whether 7 exceeds efflux ratio at 2 h, 1 µM recorded for C=CC(=O)N1CC2CCC(C1)N2c1ccc2ncnc(Nc3cc(Cl)c(Oc4ccn5ncnc5c4)cc3F)c2n1 [Example 441] .
not satisfied

###

Form field: efflux ratio at 2 h, 1 µM (one value per entry).
# SUBJECT_OF_TEST: MDR1 (P-gp) (Homo sapiens (Human), UniProt P08183)
# Sequence (P08183 whole entry): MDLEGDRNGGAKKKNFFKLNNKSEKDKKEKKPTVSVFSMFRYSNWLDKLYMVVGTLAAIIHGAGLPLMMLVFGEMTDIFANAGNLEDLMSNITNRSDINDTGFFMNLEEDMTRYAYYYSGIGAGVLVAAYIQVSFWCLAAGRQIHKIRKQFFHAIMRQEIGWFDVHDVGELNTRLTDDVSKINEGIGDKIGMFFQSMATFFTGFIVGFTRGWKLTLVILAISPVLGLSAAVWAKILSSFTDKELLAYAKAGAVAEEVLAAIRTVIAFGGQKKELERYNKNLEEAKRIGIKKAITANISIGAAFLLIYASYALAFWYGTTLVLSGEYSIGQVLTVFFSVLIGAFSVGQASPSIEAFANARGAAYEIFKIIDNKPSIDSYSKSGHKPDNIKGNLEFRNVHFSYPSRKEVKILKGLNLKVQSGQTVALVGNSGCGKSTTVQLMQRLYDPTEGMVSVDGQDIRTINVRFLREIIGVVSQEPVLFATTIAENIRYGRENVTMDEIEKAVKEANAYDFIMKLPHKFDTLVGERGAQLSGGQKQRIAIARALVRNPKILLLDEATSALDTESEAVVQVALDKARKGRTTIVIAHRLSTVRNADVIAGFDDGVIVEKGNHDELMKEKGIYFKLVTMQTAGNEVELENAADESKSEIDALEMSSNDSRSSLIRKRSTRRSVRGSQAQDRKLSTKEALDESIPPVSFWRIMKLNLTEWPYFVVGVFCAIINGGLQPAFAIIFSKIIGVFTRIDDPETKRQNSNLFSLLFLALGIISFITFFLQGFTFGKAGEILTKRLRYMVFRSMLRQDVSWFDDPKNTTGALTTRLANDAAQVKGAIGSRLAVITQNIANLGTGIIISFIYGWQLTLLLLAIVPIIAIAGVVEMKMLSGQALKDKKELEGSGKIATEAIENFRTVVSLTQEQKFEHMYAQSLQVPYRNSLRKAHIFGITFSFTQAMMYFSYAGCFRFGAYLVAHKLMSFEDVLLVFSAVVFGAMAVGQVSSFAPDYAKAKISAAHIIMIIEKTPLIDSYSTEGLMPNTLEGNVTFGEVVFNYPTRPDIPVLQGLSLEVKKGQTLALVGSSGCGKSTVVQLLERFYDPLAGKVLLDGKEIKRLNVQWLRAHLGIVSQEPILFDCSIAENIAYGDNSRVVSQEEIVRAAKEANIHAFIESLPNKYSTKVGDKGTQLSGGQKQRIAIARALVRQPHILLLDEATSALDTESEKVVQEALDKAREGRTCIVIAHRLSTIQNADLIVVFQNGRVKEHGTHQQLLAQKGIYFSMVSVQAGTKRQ
# PROCEDURE_SUMMARY: in vitro
# PARTICULARS: pig, LLC-PK1

Would you please look over these solved cases?
COMPOUND: C=CC(=O)N1CCN(c2ccc3ncnc(Nc4cc(C)c(Oc5ccn6ncnc6c5)cc4F)c3n2)CC1(C)C [Example 73]
SUBJECT_OF_TEST: MDR1 (P-gp) (Homo sapiens (Human), UniProt P08183)
efflux ratio at 2 h, 1 µM: 1.1
--
COMPOUND: C=CC(=O)N1C[C@@H](c2ccc3ncnc(Nc4ccc(Oc5ccn6ncnc6c5)c(C)c4F)c3n2)C[C@@H]1C (mixture of isomers) [Example 385]
SUBJECT_OF_TEST: MDR1 (P-gp) (Homo sapiens (Human), UniProt P08183)
efflux ratio at 2 h, 1 µM: 1.3
--
COMPOUND: C=CC(=O)N1CC[C@@H]2C[C@H]1CN2c1ccc2ncnc(Nc3cc(Cl)c(Oc4ccn5ncnc5c4)cc3F)c2n1 [Example 177]
SUBJECT_OF_TEST: MDR1 (P-gp) (Homo sapiens (Human), UniProt P08183)
efflux ratio at 2 h, 1 µM: 1.9

Find the recorded efflux ratio at 2 h, 1 µM belonging to C=CC(=O)N1CCN(c2ccc3ncnc(Nc4cc(Cl)c(Oc5ccn6ncnc6c5)cc4F)c3n2)C[C@@H]1C1CC1 [Example 286] and report it.
1
